- ASSAY SYSTEM: ALAD
- MEASUREMENT PROTOCOL: pooled miR-30 sensor sort-seq; sequence = guide strand
- ASSAY CONDITIONS: shRNA
Recorded sensor-assay potency score (higher = more potent), one value per entry.
Just the number, please.

SEQ STRING | NUMERIC RESULT
TACCACCTGACATCCTGCCTTG | -0.254
TAGTGGGTGGAAGTAGCCGCTG | -1.31
ATGTCATCAGGAACATCCGTGA | -0.798
TGGATTGCCTCAATAGCTGGGG | -0.361
TAGGTGATGATGATGTCAGCAC | 0.277

Task: So what's the measured sensor-assay potency score (higher = more potent) for this one? `ATGATGTCAGCACCTGCTCTGC`
Result: -1.4

Task: Same lookup for `TTTGGTTTTCACTTGTCTGAGG` , please.
Result: -0.0275

Task: Same lookup for `TCCTTGGGAACTCTGCTGGGGA` , please.
Result: -1.34

Task: Same lookup for `TTGACTTAGCTGCATCCCGGAA` , please.
Result: -1.25

Task: Same lookup for `AAATTTGGCACTGTAGCTCATC` , please.
Result: -0.696

###

- ASSAY SYSTEM: DAGLA
- MEASUREMENT PROTOCOL: pooled miR-30 sensor sort-seq; sequence = guide strand
- ASSAY CONDITIONS: shRNA
RECORDED METRIC: sensor-assay potency score (higher = more potent)

SEQ STRING | RESULT
TTTCATCTGAGAGTCTGTCTTG | 0.187
TTGTTTTCTAAACTCTAAGAGC | -0.925

Task: So what's the measured sensor-assay potency score (higher = more potent) for this one? `TCTTCTTGATGTACTCAGCTGA`
Result: 0.266

###

- ASSAY SYSTEM: MRPL21
- MEASUREMENT PROTOCOL: pooled miR-30 sensor sort-seq; sequence = guide strand
- ASSAY CONDITIONS: shRNA
Recorded sensor-assay potency score (higher = more potent), one value per entry.
Just the number, please.

SEQ STRING | NUMERIC RESULT
TATCCTGGTAGATATGAAGTGC | -0.473
TCTGTGAATTGAACCTTCGAGA | -0.658
TTTTAGGAACATATCCTGGTAG | 0.0621

API: the following record is the query input.
Task: So what's the measured sensor-assay potency score (higher = more potent) for this one? `TTATCCGGAGGACAGTCTGCGG`
Result: -1.53

###

Recorded sensor-assay potency score (higher = more potent), one value per entry.
- ASSAY SYSTEM: RNF122
- MEASUREMENT PROTOCOL: pooled miR-30 sensor sort-seq; sequence = guide strand
- ASSAY CONDITIONS: shRNA
Just the number, please.

Solved cases (4 shown):
SEQ STRING | NUMERIC RESULT
TTTGCTGATAAAATAGCAGCAG | -0.0269
TTGCTGATAAAATAGCAGCAGA | -0.908
TTTCACCAGACACTTGCGGTGA | -0.949
TATATCCGTATCGCTCACTCTG | -0.842

Task: So what's the measured sensor-assay potency score (higher = more potent) for this one? `AAGTCTTCCAGACAGACTGCGC`
Result: -0.854

Task: Same lookup for `TATCCGTATCGCTCACTCTGTG` , please.
Result: -0.565

###

- ASSAY SYSTEM: KCNC1
- MEASUREMENT PROTOCOL: pooled miR-30 sensor sort-seq; sequence = guide strand
- ASSAY CONDITIONS: shRNA
Classification field: enter True for sensor-assay potency score (higher = more potent) values not below -0.6, False for values below it.

Reference set (4 entries):
SEQ STRING | ASSIGNED CATEGORY
ATGAACTCTACCTTGTTGGGGC | True
TTGCGTGCCATTGCGAACGTTC | False
TTTTCTTTGGTAGTTTCTGCTT | False
TAAGGAGTAATACATCCCGAAA | False

API: the following record is the query input.
Task: Exam item: decide whether the reported sensor-assay potency score (higher = more potent) for `TTCTTTGGTAGTTTCTGCTTAG` is at least -0.6.
Result: True

###

Recorded sensor-assay potency score (higher = more potent), one value per entry.
- ASSAY SYSTEM: FXN
- MEASUREMENT PROTOCOL: pooled miR-30 sensor sort-seq; sequence = guide strand
- ASSAY CONDITIONS: shRNA
Just the number, please.

Solved cases (5 shown):
SEQ STRING | NUMERIC RESULT
ATCAAATAGACACTCTGCTTTT | -1.04
TTGTTGATCACATAGGTTCCTA | 0.0276
TTTTTGACATTCCAAATCTGGT | -1.15
TTTGACATTCCAAATCTGGTTG | -0.256
TTTCATAGGTGGTCTCATCTAG | -0.00192

Task: So what's the measured sensor-assay potency score (higher = more potent) for this one? `TAGTCTTTCATAGGTGGTCTCA`
Result: -0.873

Task: Same lookup for `TGCTTGTTGATCACATAGGTTC` , please.
Result: -0.833

###

- ASSAY SYSTEM: ADRA1D
- MEASUREMENT PROTOCOL: pooled miR-30 sensor sort-seq; sequence = guide strand
- ASSAY CONDITIONS: shRNA
Classification field: enter met for sensor-assay potency score (higher = more potent) values not below -1, not met for values below it.

SEQ STRING | ASSIGNED CATEGORY
TGAGAGGATGACAAGCAGGTTA | met
TTGGCGCGCAGCTGGGTCGTGG | not met
ATAGTTGGTGACGGTCTGCAGG | not met
TAGAAGGAGCACACGGAGGAGA | met
TAGGGACACAGCCTCCACCTCT | not met

Task: Exam item: decide whether the reported sensor-assay potency score (higher = more potent) for `TGACAAGCAGGTTACCTGCCAC` is at least -1.
Result: met

Task: Same lookup for `TTGCGCTCGGTCATGATGGCTG` , please.
Result: met

###

- ASSAY SYSTEM: FGF23
- MEASUREMENT PROTOCOL: pooled miR-30 sensor sort-seq; sequence = guide strand
- ASSAY CONDITIONS: shRNA
RECORDED METRIC: sensor-assay potency score (higher = more potent)
Just the number, please.

Solved cases (5 shown):
SEQ STRING | NUMERIC RESULT
TCTGATCTGATCATCAGGGCAC | 0.338
TTGCCTCTGAAATCCATGCAGA | -1.09
TTCTTGTGGATCTGCAGGTGGT | -1.08
TAATGGGTCACTGGCCATCGGG | -1.63
TTCTGCTCATCACACCTGTAAT | -1.67

Task: So what's the measured sensor-assay potency score (higher = more potent) for this one? `TTGGAACCTGCAGTTCTCCGGG`
Result: 0.14

###

- ASSAY SYSTEM: SLC12A1
- MEASUREMENT PROTOCOL: pooled miR-30 sensor sort-seq; sequence = guide strand
- ASSAY CONDITIONS: shRNA
Recorded sensor-assay potency score (higher = more potent), one value per entry.
Just the number, please.

Solved cases (3 shown):
SEQ STRING | NUMERIC RESULT
TTTGTGAGGATTTCCAACCAAG | -0.956
TTTCTTGTTTATCAACAGCAGT | -1.1
TTGATGACAAACATGACTGCAC | 0.915

Task: So what's the measured sensor-assay potency score (higher = more potent) for this one? `TTGCTCGTGAATCTCAAGCAGG`
Result: -0.686

###

Recorded sensor-assay potency score (higher = more potent), one value per entry.
- ASSAY SYSTEM: ZNF548
- MEASUREMENT PROTOCOL: pooled miR-30 sensor sort-seq; sequence = guide strand
- ASSAY CONDITIONS: shRNA

Task: So what's the measured sensor-assay potency score (higher = more potent) for this one? `TTATAAGGTCTTTCTCCGGTGT`
Result: -0.00393

Task: Same lookup for `TTCTCTGTCCTCTGTGTCCCTG` , please.
Result: -0.777

Task: Same lookup for `TCAACAAATGAATAGCTGCAGG` , please.
Result: -0.782

Task: Same lookup for `ATTCATAAGACCTTTCTCCTGT` , please.
Result: 0.892

###

- ASSAY SYSTEM: APOA1
- MEASUREMENT PROTOCOL: pooled miR-30 sensor sort-seq; sequence = guide strand
- ASSAY CONDITIONS: shRNA
Classification field: enter Satisfied for sensor-assay potency score (higher = more potent) values not below -0.8, Not satisfied for values below it.

SEQ STRING | ASSAY SYSTEM | ASSIGNED CATEGORY
TCGCGCAGCTTGCTGAAGGTGG | APOA1 | Satisfied
TAGGTTTAGCTGTTTTCCCAAG | APOA1 | Not satisfied
TCAGCTTCTCTTGCAGCTCGTG | APOA1 | Not satisfied

API: the following record is the query input.
Task: Exam item: decide whether the reported sensor-assay potency score (higher = more potent) for `TTGAGCACATCCACGTACACAG` is at least -0.8.
Result: Satisfied
